system: CCRF-CEM; test: NCI 60-cell drug screen, Leukemia CCRF-CEM; format: cell-based, human; conditions: 1.00E−5 Molar
Cut-off 60% on Growth Percent, CCRF-CEM, inclusive. At or above means t; below means f.

1. O=C1c2ccccc2C(=O)c2c1ccc1nc(S)[nH]c21 [f1-0]
t
2. CN(C)CCCSc1nc2ccc3c(c2[nH]1)C(=O)c1ccccc1C3=O [f1-15]
f
3. CCCSc1nc2ccc3c(c2[nH]1)C(=O)c1ccccc1C3=O [f1-2]
t
4. CCSc1nc2ccc3c(c2[nH]1)C(=O)c1ccccc1C3=O [f1-1]
f
5. O=C1c2ccccc2C(=O)c2c1ccc1nc(SCCN3CCCC3)[nH]c21 [f1-11]
f
6. O=C1c2ccccc2C(=O)c2c1ccc1nc3n(c21)CCS3 [f3-1]
t
